Source of measurements: patent US20260325533A1

Please go through the items and note down their pIC50.
molecular target: CDK4/CCND3 (Homo sapiens, UniProt P11802); assay: CDK4 homogeneous time-resolved fluorescence (HTRF) kinase assay; format: biochemical; conditions: CDK4/CCND; >250 nM marked x; read-out: CDK4/CCND IC50 >250 nM
Sequence (P11802 whole entry): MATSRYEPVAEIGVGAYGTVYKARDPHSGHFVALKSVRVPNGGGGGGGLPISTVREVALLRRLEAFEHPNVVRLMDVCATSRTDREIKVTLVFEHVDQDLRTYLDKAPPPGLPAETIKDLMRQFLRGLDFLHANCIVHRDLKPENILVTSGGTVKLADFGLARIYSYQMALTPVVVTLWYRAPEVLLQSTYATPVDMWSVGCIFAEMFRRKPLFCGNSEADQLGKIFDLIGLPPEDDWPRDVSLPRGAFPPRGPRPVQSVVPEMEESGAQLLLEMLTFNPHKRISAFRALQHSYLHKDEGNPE
Sequence (P30281 whole entry partner): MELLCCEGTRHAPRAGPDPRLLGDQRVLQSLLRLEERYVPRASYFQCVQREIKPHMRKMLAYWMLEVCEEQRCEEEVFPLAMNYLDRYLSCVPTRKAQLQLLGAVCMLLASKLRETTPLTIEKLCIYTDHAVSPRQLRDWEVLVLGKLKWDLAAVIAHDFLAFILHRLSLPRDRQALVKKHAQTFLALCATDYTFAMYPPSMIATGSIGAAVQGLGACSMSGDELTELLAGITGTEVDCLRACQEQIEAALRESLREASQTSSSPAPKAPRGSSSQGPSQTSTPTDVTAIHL
pIC50: −log10 of the molar value.

Write down the reported pIC50 of COc1cc(S(C)(=N)=O)ccc1Nc1cc2c(C#Cc3ccc4c(c3)NC(=O)C43CC3)nccc2cn1 (single isomer, unassigned) [Ex 305] , test system: CDK4/CCND3 (Homo sapiens, UniProt P11802).
< 6.60

Look up pIC50 with CDK4/CCND3 (Homo sapiens, UniProt P11802) for this compound: COc1cc(S(=N)(=O)C2CC2)ccc1Nc1cc2c(C#Cc3ccc4c(c3)NC(=O)C43CCC3)nccc2cn1 (single isomer, unassigned) [Example 296]
< 6.60

What is its pIC50 for CDK4/CCND3 (Homo sapiens, UniProt P11802)? Entry: CCC1(CC)C(=O)Nc2cc(C#Cc3nccc4cnc(Nc5ccc(S(=O)(=O)CC(F)(F)F)cc5C)cc34)ccc21 [Ex 286]
< 6.60
